Reported TGI values follow for various molecules
# System: SK-MEL-28 melanoma
# method.description: NCI tumour cell line growth inhibition, 48 h
measured.property: TGI

>>> reported_value("COC(=O)C1=C(OC(=O)c2ccccc2)C(C(=O)OC)[C@]2(O)[C@@H](C(=O)OC)C1CC(c1ccccc1OC)[C@@H]2C(=O)OC (stereo not given in full)")
"> 100 µM"
>>> reported_value("O=C(NCCOC(=O)OCCNC(=O)NC1CCCCC1)NC1CCCCC1")
"> 100 µM"
>>> reported_value("CCN1C(=O)N(C)C(O)c2c1nc1ccccn1c2=O (stereo not given)")
"77.6 µM"
>>> reported_value("COc1ccc(C23OCC(Cc4cc(OC)c(OC)cc42)C3COC(C)=O)cc1OC (stereo not given)")
"> 100 µM"
>>> reported_value("CO[C@@H]1C[C@H]2[C@@H]3CC[C@H]([C@H](C)CO)[C@@]3(C)CC[C@@H]2[C@@]2(C)CC[C@H]3C[C@]312")
"> 100 µM"
